- target-or-test-system: HLA-B*08:01
- assay-text: IEDB peptide-MHC binding, purified MHC/direct/fluorescence; filed as Kd, often an IC50 or EC50 that approximates it; bounds were set here for any values at or beyond the usual limits of such assays
- assay-setup: source organism: Coxiella burnetii Q321
pKd: −log10 of the molar value.
measure: pKd

Given the entry `VFFKQWFEK` , report its measured pKd.
≤ 4.70

====

- target-or-test-system: HLA-A*69:01
- assay-text: IEDB peptide-MHC binding, purified MHC/direct/fluorescence; filed as Kd, often an IC50 or EC50 that approximates it; bounds were set here for any values at or beyond the usual limits of such assays
- assay-setup: source organism: Burkholderia mallei
measure: Kd (µM)
Numbers only, in µM.

Given the entry `YLACKQHAL` , report its measured Kd.
0.291

====

- target-or-test-system: HLA-B*83:01
- assay-text: IEDB peptide-MHC binding, purified MHC/competitive/fluorescence; filed as Kd, often an IC50 or EC50 that approximates it; bounds were set here for any values at or beyond the usual limits of such assays
- assay-setup: source organism: Cryptosporidium parvum Iowa II
measure: Kd

Record `MQFPGSVGF` : what is its Kd with HLA-B*83:01?
≥ 5 µM

====

- target-or-test-system: HLA-A*68:01
- assay-text: IEDB peptide-MHC binding, purified MHC/competitive/radioactivity; filed as Kd, often an IC50 or EC50 that approximates it; bounds were set here for any values at or beyond the usual limits of such assays
- assay-setup: source organism: SARS coronavirus Tor2
measure: log10(Kd) (log10 of the value in nM)
# log10 transformed; quantity=Kd; unit=nM

sequence-record	log10(Kd)
VFAQVKQMYK	2.25
AQPCSDKAYK	3.80
SVLNDILSR	3.63
ITAKETLYR	1.19

For every item below, please supply its log10(Kd).
1. GFDAWFSQR
2. ASAFFGMSR
3. DLKWARFPK

[3.63, 2.29, 1.71]

====

- target-or-test-system: HLA-A*30:01
- assay-text: IEDB peptide-MHC binding, purified MHC/competitive/radioactivity; filed as Kd, often an IC50 or EC50 that approximates it; bounds were set here for any values at or beyond the usual limits of such assays
- assay-setup: source organism: Mammarenavirus whitewaterense
measure: pKd
One number for each entry, as −log10 of the molar value.

Given the entry `YVSSIFLHL` , report its measured pKd.
5.32

====

- target-or-test-system: HLA-B*44:02
- assay-text: IEDB peptide-MHC binding, purified MHC/competitive/radioactivity; filed as Kd, often an IC50 or EC50 that approximates it; bounds were set here for any values at or beyond the usual limits of such assays
- assay-setup: source organism: SARS coronavirus Tor2
We label by threshold. Values of Kd strictly beneath 700 nM are label 1. Values of 700 nM and up are label 0.

sequence-record	target-or-test-system	group
EEILGTVSW	HLA-B*44:02	label 1
PEANMDQESF	HLA-B*44:02	label 0

Criterion: Kd strictly below 700 nM. Is it met by `IEYSDFATSA` ?
label 0

Criterion: Kd strictly below 700 nM. Is it met by `HEFVDEFYA` ?
label 0

====

- target-or-test-system: HLA-A*11:01
- assay-text: IEDB peptide-MHC binding, purified MHC/competitive/radioactivity; filed as Kd, often an IC50 or EC50 that approximates it; bounds were set here for any values at or beyond the usual limits of such assays
- assay-setup: source organism: Dengue virus 2 Jamaica/1409/1983
measure: pKd
Give bare numbers, as −log10 of the molar value.

sequence-record	pKd
AINVLRGFRK	6.59

Consider the record given below.
Record `AIFLTTLSR` : what is its pKd with HLA-A*11:01?
7.18
